Test system: U251 CNS
Procedure summary: NCI tumour cell line growth inhibition, 48 h
Reported property: TGI (µM)
Field format: number, assumed µM, no unit text.

Compound	Units of measure	Observed value
N=C(N)SCc1ccc2c(c1)S(=O)(=O)c1ccccc1O2	µM	38.2
CCN1CCN(CCC(=O)Nc2cccc(-n3cc(-c4ccncc4)c(-c4ccc(Cl)c(OC)c4)n3)c2)CC1	µM	1.76
CN1CCN(Cc2ccc(NC(=O)c3cncc(C#Cc4cnc(N)c5ncccc45)c3)cc2C(F)(F)F)CC1	µM	2.18
CN1CCN(c2cc3[nH]c4cc(O)cc(O)c4c(=O)c3cc2N)CC1	µM	68.5
COc1ccc(/C=C/C(=O)c2cc(OC)cc(OC)c2)cc1	µM	7.41
CC(C)=CC[C@@H]1CC2(CC=C(C)C)C(=O)C(OC3(C(=O)c4ccccc4)C(=O)C4(CC=C(C)C)C[C@@H](CC=C(C)C)C(C)(C)C(CC=C(C)C)(C4=O)C3=O)(C(=O)c3ccccc3)C(=O)C(CC=C(C)C)(C2=O)C1(C)C (stereo partly drawn)	µM	5.34

INPUT: Item CC(C)(C)N(Cc1ccccc1)C(=O)/C=C\S(=O)c1ccccc1 (stereo not drawn) has what recorded TGI?
OUTPUT: 15.5

INPUT: Follow-up entry: CCCCn1c(=O)[nH]c(N)c([C@@H]2c3c([nH]c(=O)n(CCCC)c3=O)Oc3ccc4ccccc4c32)c1=O
OUTPUT: 3.32

INPUT: Follow-up entry: COC(=O)C(Cc1ccccc1)NC(=O)CSc1nnc(COc2ccc(Cl)cc2)n1-c1ccccc1 (stereo not drawn)
OUTPUT: 32.9
